All figures here come from the supplement of paper PMC6757056.

B1: library; a variant is named by its letters at N, in order (parent)
chain: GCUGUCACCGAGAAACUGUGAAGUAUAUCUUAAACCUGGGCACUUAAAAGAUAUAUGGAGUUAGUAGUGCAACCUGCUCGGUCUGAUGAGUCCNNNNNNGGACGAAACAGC

Variants of: B1
Experiment: FACS-Seq fitted mean relative fluorescence mCherry/BFP with ligand (log10 relative fluorescence); HEK293T; ligand: cyclic di-GMP (c-di-GMP-II aptamer); ligand concentration (+) FACS-Seq: 1 mM; higher = higher reporter protein expression
Conditions: ligand present: yes
Exercise: state measured FACS-Seq fitted mean (log10) for each of the variants provided.
Answers are plain numbers.

// worked examples, FACS-Seq fitted mean (log10) included
>>> observed_value("GCUGUCACCGAGAAACUGUGAAGUAUAUCUUAAACCUGGGCACUUAAAAGAUAUAUGGAGUUAGUAGUGCAACCUGCUCGGUCUGAUGAGUCCUACGAAGGACGAAACAGC [UACGAA]")
-0.204
>>> observed_value("GCUGUCACCGAGAAACUGUGAAGUAUAUCUUAAACCUGGGCACUUAAAAGAUAUAUGGAGUUAGUAGUGCAACCUGCUCGGUCUGAUGAGUCCAGAGGAGGACGAAACAGC [AGAGGA]")
-0.212
>>> observed_value("GCUGUCACCGAGAAACUGUGAAGUAUAUCUUAAACCUGGGCACUUAAAAGAUAUAUGGAGUUAGUAGUGCAACCUGCUCGGUCUGAUGAGUCCCUCGGAGGACGAAACAGC [CUCGGA]")
0.203

State recorded FACS-Seq fitted mean (log10) for all listed variants.
1. GCUGUCACCGAGAAACUGUGAAGUAUAUCUUAAACCUGGGCACUUAAAAGAUAUAUGGAGUUAGUAGUGCAACCUGCUCGGUCUGAUGAGUCCGCUGUGGGACGAAACAGC [GCUGUG]
2. GCUGUCACCGAGAAACUGUGAAGUAUAUCUUAAACCUGGGCACUUAAAAGAUAUAUGGAGUUAGUAGUGCAACCUGCUCGGUCUGAUGAGUCCCGGGUCGGACGAAACAGC [CGGGUC]
3. GCUGUCACCGAGAAACUGUGAAGUAUAUCUUAAACCUGGGCACUUAAAAGAUAUAUGGAGUUAGUAGUGCAACCUGCUCGGUCUGAUGAGUCCAGAAAGGGACGAAACAGC [AGAAAG]
4. GCUGUCACCGAGAAACUGUGAAGUAUAUCUUAAACCUGGGCACUUAAAAGAUAUAUGGAGUUAGUAGUGCAACCUGCUCGGUCUGAUGAGUCCAGGUGAGGACGAAACAGC [AGGUGA]
5. GCUGUCACCGAGAAACUGUGAAGUAUAUCUUAAACCUGGGCACUUAAAAGAUAUAUGGAGUUAGUAGUGCAACCUGCUCGGUCUGAUGAGUCCAACCUUGGACGAAACAGC [AACCUU]
6. GCUGUCACCGAGAAACUGUGAAGUAUAUCUUAAACCUGGGCACUUAAAAGAUAUAUGGAGUUAGUAGUGCAACCUGCUCGGUCUGAUGAGUCCCGACUGGGACGAAACAGC [CGACUG]
7. GCUGUCACCGAGAAACUGUGAAGUAUAUCUUAAACCUGGGCACUUAAAAGAUAUAUGGAGUUAGUAGUGCAACCUGCUCGGUCUGAUGAGUCCAACUAAGGACGAAACAGC [AACUAA]
8. GCUGUCACCGAGAAACUGUGAAGUAUAUCUUAAACCUGGGCACUUAAAAGAUAUAUGGAGUUAGUAGUGCAACCUGCUCGGUCUGAUGAGUCCAUUAUCGGACGAAACAGC [AUUAUC]

Reply:
1: -0.00737; 2: -0.527; 3: 0.0417; 4: -0.245; 5: 0.232; 6: 0.297; 7: -0.168; 8: -0.167
